Cited source: ChEMBL document CHEMBL4842364

ASSAY_SUMMARY: AUC in Beagle dog at 3 mg/kg, iv measured upto 24 hrs by LC-MS/MS analysis
Type: ADME, organism-based, Canis lupus familiaris
Set-up: route intravenous, dose 3 mg/kg, time <=24
SETTINGS: in vivo
READOUT: AUC at 24 h

GET /value?item= C=CCn1c(=O)c2cnc(Nc3ccc(N4CCN(C)CC4)cc3)nc2n1-c1ccc2c(n1)C(O)(CC)CC2 (racemic) &field=AUC at 24 h returns 2.1 µM·h

---

ASSAY_SUMMARY: Octanol/buffer distribution coefficient, logD of the compound at pH 7.4
Assay type: physicochemical
Would you mind telling me the reported logD of each entry?

GET /value?item= C=CCn1c(=O)c2cnc(Nc3ccc4c(c3)CN(CCO)CC4)nc2n1-c1cccc(C(C)(C)O)n1 &field=logD returns 2.2

GET /value?item= C=CCn1c(=O)c2cnc(Nc3ccc(N4CCN(C)CC4)cc3)nc2n1-c1ccc2c(n1)[C@@](O)(C(F)F)CC2 &field=logD returns 2.3

GET /value?item= C=CCn1c(=O)c2cnc(Nc3ccc(N4CCN(C)CC4)c(C)c3)nc2n1-c1ccc2c(n1)[C@@](O)(CC)CC2 &field=logD returns 3

GET /value?item= C=CCn1c(=O)c2cnc(Nc3cc(N4CCN(C)CC4)c4ccn(C)c4c3)nc2n1-c1ccc2c(n1)[C@@](O)(CC)CC2 &field=logD returns 2.7

---

ASSAY_SUMMARY: Clearance in Beagle dog at 3 mg/kg, iv measured upto 24 hrs by LC-MS/MS analysis
Assay type: ADME, organism-based, Canis lupus familiaris
SETTINGS: in vivo
READOUT: clearance (L/h/kg)
The response must be a number in L/h/kg with no trailing unit.

GET /value?item= C=CCn1c(=O)c2cnc(Nc3ccc(N4CCN(C)CC4)cc3)nc2n1-c1ccc2c(n1)C(O)(CC)CC2 (racemic) &field=clearance returns 2.76

---

ASSAY_SUMMARY: Permeability of the compound across basolateral to apical side in human Caco-2 cells
Type: ADME, cell-based
SETTINGS: read-out: permeability
Would you mind telling me the reported Papp B→A of each entry?
The response must be a number in ×10⁻⁶ cm/s with no trailing unit.

GET /value?item= C=CCn1c(=O)c2cnc(Nc3ccc(N4CCN(C)CC4)cc3)nc2n1-c1ccc2c(n1)C(O)(CC)CC2 (racemic) &field=Papp B→A returns 25.5

GET /value?item= Cc1cn(-c2c(Cl)cccc2Cl)c(=O)c2cnc(Nc3ccc(N4CCN(C)CC4)cc3)nc12 &field=Papp B→A returns 1.8

GET /value?item= C=CCn1c(=O)c2cnc(Nc3ccc(N4CCN(C)CC4)cc3)nc2n1-c1cccc(C(C)(C)O)n1 &field=Papp B→A returns 42

---

ASSAY_SUMMARY: Efflux ratio of permeability from basolateral to apical side over apical to basolateral side in human Caco-2 cells
Assay type: ADME, cell-based
Would you mind telling me the reported efflux ratio of each entry?
# respond with the number and nothing more

GET /value?item= C=CCn1c(=O)c2cnc(Nc3ccc(N4CCN(C)CC4)cc3)nc2n1-c1ccc2c(n1)C(O)(CC)CC2 (racemic) &field=efflux ratio returns 7

GET /value?item= Cc1cn(-c2c(Cl)cccc2Cl)c(=O)c2cnc(Nc3ccc(N4CCN(C)CC4)cc3)nc12 &field=efflux ratio returns 1.1

---

TARGET: Mitogen-activated protein kinase kinase kinase 19 (Homo sapiens, UniProt Q56UN5)
Sequence (Q56UN5 whole entry): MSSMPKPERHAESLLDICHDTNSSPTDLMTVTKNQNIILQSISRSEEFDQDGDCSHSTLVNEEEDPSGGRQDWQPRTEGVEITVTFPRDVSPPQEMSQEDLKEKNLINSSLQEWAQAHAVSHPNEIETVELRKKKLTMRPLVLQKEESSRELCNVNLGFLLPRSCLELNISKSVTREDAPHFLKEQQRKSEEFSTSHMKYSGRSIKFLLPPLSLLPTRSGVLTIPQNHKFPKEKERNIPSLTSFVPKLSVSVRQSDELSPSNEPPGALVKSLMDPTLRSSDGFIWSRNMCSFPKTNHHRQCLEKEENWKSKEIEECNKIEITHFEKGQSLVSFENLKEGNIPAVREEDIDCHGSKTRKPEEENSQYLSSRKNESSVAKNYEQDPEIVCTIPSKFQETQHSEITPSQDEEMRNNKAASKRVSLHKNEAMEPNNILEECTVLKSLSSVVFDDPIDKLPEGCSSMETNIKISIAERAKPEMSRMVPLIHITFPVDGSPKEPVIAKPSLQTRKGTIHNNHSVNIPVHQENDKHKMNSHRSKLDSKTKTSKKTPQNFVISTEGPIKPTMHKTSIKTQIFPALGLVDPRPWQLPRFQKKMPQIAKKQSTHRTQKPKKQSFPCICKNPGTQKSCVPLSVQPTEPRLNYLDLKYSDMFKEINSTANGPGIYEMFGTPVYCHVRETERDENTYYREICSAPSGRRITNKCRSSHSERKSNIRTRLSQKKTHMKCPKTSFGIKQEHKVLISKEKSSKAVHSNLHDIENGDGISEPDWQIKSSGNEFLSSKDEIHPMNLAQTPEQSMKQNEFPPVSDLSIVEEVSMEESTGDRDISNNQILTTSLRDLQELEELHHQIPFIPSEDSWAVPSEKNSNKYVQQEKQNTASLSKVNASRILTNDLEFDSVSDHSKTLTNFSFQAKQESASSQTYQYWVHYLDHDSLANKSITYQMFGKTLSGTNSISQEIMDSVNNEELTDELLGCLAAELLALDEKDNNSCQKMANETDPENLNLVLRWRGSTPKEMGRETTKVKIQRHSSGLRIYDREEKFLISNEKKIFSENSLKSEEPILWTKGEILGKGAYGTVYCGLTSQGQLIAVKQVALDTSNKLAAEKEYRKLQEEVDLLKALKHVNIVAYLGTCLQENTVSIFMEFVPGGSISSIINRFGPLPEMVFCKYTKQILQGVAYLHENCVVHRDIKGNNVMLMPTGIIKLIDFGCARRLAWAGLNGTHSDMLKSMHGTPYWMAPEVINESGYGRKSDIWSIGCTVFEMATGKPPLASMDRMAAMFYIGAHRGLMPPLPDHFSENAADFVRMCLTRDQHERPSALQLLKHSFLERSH
ASSAY_SUMMARY: Inhibition of YSK4 (unknown origin)
READOUT: IC50 (µM)
The response must be a number in µM with no trailing unit.

Lab entry: Mitogen-activated protein kinase kinase kinase 19 (Homo sapiens, UniProt Q56UN5) assay, compound C=CCn1c(=O)c2cnc(Nc3ccc(N4CCN(C)CC4)cc3)nc2n1-c1ccc2c(n1)C(O)(CC)CC2 (racemic) , IC50 = 0.059

---

ASSAY_SUMMARY: AUC(0 to 24 hrs) in rat at 60 mg/kg, po
Format: ADME, organism-based
Design: time < 24 hr, route oral, dose 60 mg/kg
SETTINGS: in vivo
READOUT: log10 of AUC(0-t) at 24 h (log10 of the value in µM·h)
Reminder: these figures are log10 of reported AUC(0-t) at 24 h, in µM·h before transformation.

GET /value?item= C=CCn1c(=O)c2cnc(Nc3ccc(N4CCN(C)CC4)cc3)nc2n1-c1ccc2c(n1)[C@](C)(O)CCC2 &field=log10 of AUC(0-t) at 24 h returns 0.97

GET /value?item= C=CCn1c(=O)c2cnc(Nc3ccc(N4CCN(C)CC4)c(C)c3)nc2n1-c1ccc2c(n1)[C@@](O)(CC)CC2 &field=log10 of AUC(0-t) at 24 h returns 1.63

GET /value?item= C=CCn1c(=O)c2cnc(Nc3ccc(N4CCN(C)CC4)cc3)nc2n1-c1ccc2c(n1)[C@@](C)(O)CC2 &field=log10 of AUC(0-t) at 24 h returns 1.15

GET /value?item= C=CCn1c(=O)c2cnc(Nc3ccc(N4CCN(C)CC4)cc3)nc2n1-c1ccc2c(n1)C(O)(C(F)(F)F)CC2 (single isomer, unassigned) &field=log10 of AUC(0-t) at 24 h returns 1.57

GET /value?item= C=CCn1c(=O)c2cnc(Nc3ccc(N4CCN(C)CC4)cc3)nc2n1-c1ccc2c(c1)C(C)(O)CC2 (single isomer, unassigned) &field=log10 of AUC(0-t) at 24 h returns 1.23

GET /value?item= C=CCn1c(=O)c2cnc(Nc3ccc(N4CCN(C)CC4)cc3)nc2n1-c1ccc2c(n1)C(O)CC2 (stereo in doubt; 8) &field=log10 of AUC(0-t) at 24 h returns -0.52

GET /value?item= C=CCn1c(=O)c2cnc(Nc3ccc(N4CCN(C)CC4)cc3)nc2n1-c1ccc2c(n1)C(O)(CC)CC2 (racemic) &field=log10 of AUC(0-t) at 24 h returns 1.43

---

Would you mind telling me the reported CLint scaled of each entry?
ASSAY_SUMMARY: Intrinsic clearance in human microsomes
Type: ADME, Microsome
The response must be a number in mL/min/kg with no trailing unit.

GET /value?item= C=CCn1c(=O)c2cnc(Nc3ccc(N4CCN(C)CC4)cc3)nc2n1-c1ccc2c(n1)[C@@](N)(CC)CC2 &field=CLint scaled returns 26

GET /value?item= C=CCn1c(=O)c2cnc(Nc3ccc4c(c3)CNCC43CC3)nc2n1-c1ccc2c(n1)[C@@](O)(C(F)(F)F)CC2 &field=CLint scaled returns 97

GET /value?item= C=CCn1c(=O)c2cnc(Nc3ccc(N4CCN(C)CC4)cc3)nc2n1-c1ccc2c(n1)C(O)(C(F)(F)F)CC2 (single isomer, unassigned) &field=CLint scaled returns 71

GET /value?item= C=CCn1c(=O)c2cnc(Nc3ccc(N4CCN(C)CC4)cc3)nc2n1-c1ccc2c(c1)C(C)(O)CC2 (single isomer, unassigned) &field=CLint scaled returns 26

---

ASSAY_SUMMARY: Half life in Beagle dog at 3 mg/kg, iv measured upto 24 hrs by LC-MS/MS analysis
Format: ADME, organism-based, Canis lupus familiaris
SETTINGS: in vivo
READOUT: half-life (h)
The response must be a number in h with no trailing unit.

GET /value?item= C=CCn1c(=O)c2cnc(Nc3ccc(N4CCN(C)CC4)cc3)nc2n1-c1ccc2c(n1)C(O)(CC)CC2 (racemic) &field=half-life returns 1.4

---

ASSAY_SUMMARY: AUC in Beagle dog at 10 mg/kg, po measured upto 24 hrs by LC-MS/MS analysis
Assay type: ADME, organism-based, Canis lupus familiaris
Parameters: route oral, dose 10 mg/kg, time <=24
SETTINGS: in vivo
READOUT: AUC at 24 h (µM·h)
The response must be a number in µM·h with no trailing unit.

GET /value?item= C=CCn1c(=O)c2cnc(Nc3ccc(N4CCN(C)CC4)cc3)nc2n1-c1ccc2c(n1)C(O)(CC)CC2 (racemic) &field=AUC at 24 h returns 9.7

---

ASSAY_SUMMARY: Intrinsic clearance in human microsomes
Format: ADME, Microsome
READOUT: CLint scaled (mL/min/kg)
The response must be a number in mL/min/kg with no trailing unit.

GET /value?item= C=CCn1c(=O)c2cnc(Nc3ccc(N4CCN(C)CC4)cc3)nc2n1-c1cccc(C(C)(C)O)n1 [ADAVOSERTIB] &field=CLint scaled returns 34

GET /value?item= C=CCn1c(=O)c2cnc(Nc3ccc(N4CCNCC4)cc3)nc2n1-c1ccc2c(n1)[C@@](O)(CC)CC2 &field=CLint scaled returns 26

GET /value?item= C=CCn1c(=O)c2cnc(Nc3ccc(N4CCN(C)CC4)c(C)c3)nc2n1-c1ccc2c(n1)[C@@](O)(CC)CC2 &field=CLint scaled returns 102

---

ASSAY_SUMMARY: Half life in Beagle dog at 10 mg/kg, po measured upto 24 hrs by LC-MS/MS analysis
Format: ADME, organism-based, Canis lupus familiaris
SETTINGS: in vivo
READOUT: half-life
Don't forget the unit after the value.

GET /value?item= C=CCn1c(=O)c2cnc(Nc3ccc(N4CCN(C)CC4)cc3)nc2n1-c1ccc2c(n1)C(O)(CC)CC2 (racemic) &field=half-life returns 2.3 h
